Test system: U2932
Experiment: Cytotoxicity in vitro (CellTiter-Glo viability), U2932
Type: cell-based, human
Details: U2932 (DLBCL), 72 hours
Non-standard residues stand in square brackets, D forms with d. Residues, ends and D or L forms follow the SMILES beside them. *: point of attachment. Dolaproine = CO[C@@H]([C@@H]1CCCN1)[C@@H](C)C(=O)O; Dil = CC[C@H](C)[C@H](NC)[C@@H](CC(=O)O)OC; X1 = C[C@@H](N*)[C@@H](O)c1ccccc1; NMeV = CN[C@H](C(=O)O)C(C)C
property label: EC50
Please provide the amount together with its unit, number first.

The reported U2932 EC50 of CC[C@H](C)[C@@H]([C@@H](CC(=O)N1CCC[C@H]1[C@H](OC)[C@@H](C)C(=O)N[C@H](C)[C@@H](O)c1ccccc1)OC)N(C)C(=O)[C@@H](NC(=O)[C@@H](NC)C(C)C)C(C)C [MMAE, monomethyl auristatin E, reference compound] (H-[NMeV]V[Dil][Dolaproine]-X1) is 0.006 nM

====

Tested on: MDA-MB-231
Test: Cytotoxicity in vitro (CellTiter-Glo viability), MDA-MB-231
Type: cell-based, human
Conditions: MDA-MB-231 (TNBC), 72 hours
property label: EC50 (nM)
Hi! Could you send only the number? It should be in nM, unit omitted.

The molecule listed as COc1cccc2c1C(=O)c1c(O)c3c(c(O)c1C2=O)C[C@@](O)(C(=O)CO)C[C@@H]3O[C@H]1C[C@H]2[C@H](O[C@@H]3[C@@H](OC)OCCN32)[C@H](C)O1 [PNU-159682, reference compound] shows EC50 equal to 0.005

====

Test system: U2OS
Type: cell-based, human
Settings: U2OS (OS), 72 hours; read-out: EC50 (nM), cytotoxicity in vitro
Non-standard residues stand in square brackets, D forms with d. Residues, ends and D or L forms follow the SMILES beside them. *: point of attachment. Dolaproine = CO[C@@H]([C@@H]1CCCN1)[C@@H](C)C(=O)O; Dil = CC[C@H](C)[C@H](NC)[C@@H](CC(=O)O)OC; X1 = C[C@@H](N*)[C@@H](O)c1ccccc1; NMeV = CN[C@H](C(=O)O)C(C)C
property label: EC50 (nM)
The reply should contain only the number, in nM.

The molecule listed as CC[C@H](C)[C@@H]([C@@H](CC(=O)N1CCC[C@H]1[C@H](OC)[C@@H](C)C(=O)N[C@H](C)[C@@H](O)c1ccccc1)OC)N(C)C(=O)[C@@H](NC(=O)[C@@H](NC)C(C)C)C(C)C [MMAE, monomethyl auristatin E, reference compound] (H-[NMeV]V[Dil][Dolaproine]-X1) has a reported EC50 of 1.2

====

System: WSU-DLCL
Assay: Cytotoxicity in vitro (CellTiter-Glo viability), WSU-DLCL
Type: cell-based, human
Conditions: WSU-DLCL (DLBCL), 72 hours
Non-standard residues stand in square brackets, D forms with d. Residues, ends and D or L forms follow the SMILES beside them. *: point of attachment. Dolaproine = CO[C@@H]([C@@H]1CCCN1)[C@@H](C)C(=O)O; Dil = CC[C@H](C)[C@H](NC)[C@@H](CC(=O)O)OC; X1 = C[C@@H](N*)[C@@H](O)c1ccccc1; NMeV = CN[C@H](C(=O)O)C(C)C
property label: EC50 (nM)
Unit nM implied. Number only.

The molecule identified as CC[C@H](C)[C@@H]([C@@H](CC(=O)N1CCC[C@H]1[C@H](OC)[C@@H](C)C(=O)N[C@H](C)[C@@H](O)c1ccccc1)OC)N(C)C(=O)[C@@H](NC(=O)[C@@H](NC)C(C)C)C(C)C [MMAE, monomethyl auristatin E, reference compound] (H-[NMeV]V[Dil][Dolaproine]-X1) registered its EC50 at 0.06
